# System: ROCK1
# Parameters: species or system human, MV4-11 + K-562 + COLO205 + SK-N-BE2 + OVCAR-8
# test.parameters: read-out: apparent Kd; compound concentrations:100 nM and 1000 nM (sheet 'Samples'); n = 1
quantity: potency estimated from few doses (nM)
Just the number please, in nM, no unit attached.

molecule="Cl.Cl.NC[C@H](CC1CCCCC1)NC(=O)c1cc(Br)c(-c2ccnc3[nH]ccc23)s1.NC[C@H](CC1CCCCC1)NC(=O)c1cc(Br)c(-c2ccnc3[nH]ccc23)s1 [GSK1581427A]" tested_on=ROCK1 unit_of_measurement=nM measurement=53.6
molecule="CC(C)NCC(Cc1ccccc1)NC(=O)c1cc(Br)c(-c2ccnc3[nH]ccc23)s1.CC(C)NCC(Cc1ccccc1)NC(=O)c1cc(Br)c(-c2ccnc3[nH]ccc23)s1.Cl.Cl (centres unmarked) [GSK1383281A]" tested_on=ROCK1 unit_of_measurement=nM measurement=43.1
molecule="Cl.Cl.NC[C@H](Cc1ccc(C(F)(F)F)cc1)NC(=O)c1cc(Br)c(-c2ccnc3[nH]ccc23)s1.NC[C@H](Cc1ccc(C(F)(F)F)cc1)NC(=O)c1cc(Br)c(-c2ccnc3[nH]ccc23)s1 [GSK1487252A]" tested_on=ROCK1 unit_of_measurement=nM measurement=217
molecule="Cl.Cl.NCC(C(=O)Nc1cc(Br)c(-c2ccnc3[nH]ccc23)s1)c1ccccc1.NCC(C(=O)Nc1cc(Br)c(-c2ccnc3[nH]ccc23)s1)c1ccccc1 (centres unmarked) [GSK1269851A]" tested_on=ROCK1 unit_of_measurement=nM measurement=894

Continue with the next molecule.
What does the record list as potency estimated from few doses for COc1ccc(O)c(C(=O)c2ccc(C(=O)O[C@@H]3CCCNC[C@H]3NC(=O)c3ccncc3)cc2)c1F.Cl ?
19.2
